Experiment: Toxicity liver stage against HepG2, at 10uM
Format: cell-based
Parameters: test concentration 10 uM, cell line HepG2-A16-CD81EGFP
Assay context: human, HepG2-A16-CD81EGFP cells; read-out: INHIBITION

| Molecule | Unit tag | cytotoxicity at 10 µM |
| --- | --- | --- |
| Cc1cnn(CC2CCCN2C(=O)c2cc(Cl)ccc2F)c1 (configuration not stated) | % | -5.82 |
| COCC1c2nnn(CC3CC3)c2CCN1C(=O)c1cccc(F)c1 (configuration not stated) | % | -8.31 |
| O=C(NC1CC1)C1CNCCN1C(=O)COc1ccc2c(c1)OCO2 (configuration not stated) | % | -1.74 |
| O=C(c1ccc[nH]1)N1C[C@H](OCc2cccnc2)[C@H]2COC[C@H]21 | % | -10.4 |
| c1cnnc(N2CCCC2CNCc2cscn2)c1 (configuration not stated) | % | -5.78 |
| CC(NS(N)(=O)=O)c1ccc(OCc2ccc(F)cc2)cc1 (configuration not stated) | % | -2.98 |
| CN(C)c1nc(NCc2cccnc2N)ncc1F | % | -2.11 |
| CC(C)(C)OC(=O)N[C@@H]1C[C@@H](O)CN(C(=O)c2cccc(F)c2)C[C@H]1O | % | 0.187 |
| Cc1noc(C(C)C)c1C(=O)NS(=O)(=O)c1ccc(Cl)cc1 | % | -8.59 |
| Cn1cc(C(=O)N[C@@H]2CN(CC3CCOCC3)[C@@H]3CCCO[C@@H]32)cn1 | % | 6.64 |
| Cc1ncc(C(=O)N2CCCC(C(=O)CCc3ccccc3)C2)s1 (configuration not stated) | % | 19.4 |
| CC(=O)N(Cc1ccc(NCc2cnn(C(C)(C)C)c2)cc1)C(C)C | % | -3.44 |
| CC(=O)Nc1ccc(Cl)c(C(=O)N(C)Cc2nc(C)c[nH]2)c1 | % | 1.37 |
| Cc1c(C2CCCN(C(=O)c3ccncc3)C2)n2c(nc1=O)CCC2 (configuration not stated) | % | -21.8 |
| COc1ccc(-c2csc3c2c(N)nc(=O)n3CCN(C)C)cc1 | % | -49.9 |
| Cc1nc(C)n(CC2CCCCN2Cc2cnc(C)s2)n1 (configuration not stated) | % | -2.66 |
| N#CCc1ccc(OCC(=O)NS(=O)(=O)c2ccc(Cl)s2)cc1 | % | 6.41 |
| NC(=O)C1CCN(C(=O)NCc2ccccc2Cn2ccnc2)CC1 | % | -0.302 |
| Cc1noc(C)c1CN1CCC[C@]2(C[C@@H](Oc3ccccn3)CO2)C1 | % | -67.1 |
| CN(CC1CCOCC1)C(=O)NCCCN1CCCCC1 | % | 0.105 |
| COc1ccc(C2=Nn3c(CCN)nnc3-c3ccccc3C2)cc1 | % | 4.92 |
| Cc1nn(C)c2cnn(Cc3ccc(C(=O)NC4CC4)o3)c12 | % | 9.43 |
| Cc1occc1C(=O)N1CC(C(=O)N2CCOCC2)C2(CCOCC2)C1 (configuration not stated) | % | 7.37 |
| Cc1[nH]nc(CCC(=O)NCC2CCN(C3CCCCC3)C2)c1C (configuration not stated) | % | -5.08 |
| CCc1nc(C)cn1C(=O)Nc1ccccc1 | % | 2.52 |
| CC(C)(C)n1nnnc1CN(Cc1ccccc1)Cc1ccc(Cl)cc1 | % | 28.8 |
| Cc1nc(CN(CCS(C)(=O)=O)C(C)C)no1 | % | 0.329 |
| Cc1cnn(CC(=O)N2CCC(c3ccn4nccc4n3)CC2)c1 | % | 3.24 |
| COCC[C@]1(O)CCN(CC(=O)NCc2ccccc2C)C[C@H]1C | % | -5.31 |
| CC(NC(=O)N1CCC(n2cncn2)CC1)c1ccc(F)cc1 (configuration not stated) | % | -3.66 |
| CC(C)NC(=O)C1CCC2(CCN(Cc3cnn(C)c3)CC2)CO1 (configuration not stated) | % | 9.67 |
| C=C(C)COc1cccc(CN(C)C(C)c2nccs2)c1 (configuration not stated) | % | -49.2 |
| Cc1cnc(CN2CCOC(Cn3nc(C)cc3C)C2)cn1 (configuration not stated) | % | -2.81 |
| Cc1cc(N(C)C)nc(N2CCCC2c2cc(C)on2)n1 (configuration not stated) | % | -2.38 |
| O=C(C1CCC1)N1CCO[C@H]2[C@H](OCCCn3cccn3)CC[C@@H]21 | % | 16.7 |
| COc1ncccc1CN1CCC2(CC1)CC(OCC1CC1)CO2 (configuration not stated) | % | 4.33 |
| c1cnc(N2CCO[C@H]3CN(CC4CCC4)C[C@H]32)cn1 | % | -102 |
| CC(C)n1ccnc1CN1CCCN(C(=O)COC2CCCC2)CC1 | % | -0.602 |
| CCCn1c(C)c(CC(=O)NC(C)CO)c2c1CC(C)(C)CC2=O (configuration not stated) | % | -10.5 |
| CC(C)NC(=O)CNC(C)COc1ccccc1 (configuration not stated) | % | -5.66 |
| COc1ccc(OC)c(CCNC(=O)CCC2CCCO2)c1 (configuration not stated) | % | 2.34 |
| CCc1c(C)sc2c1c(N)nc(=O)n2CCN1CCCCC1 | % | 9.49 |
| CCOC(=O)C1(Cc2cccc(Cl)c2)CCCN(Cc2ncc[nH]2)C1 (configuration not stated) | % | -5.22 |
| CN(C)c1ccnc(-c2ccnc3c2ccn3C)n1 | % | 20.2 |
| Cc1ccc(OCC2CCCN(CC3CCOCC3)C2)cc1 (configuration not stated) | % | 16.1 |
| N#Cc1cn(C2CC2)c(=O)n(CC(O)c2ccccc2F)c1=O (configuration not stated) | % | 3.97 |
| Cn1ccnc1CN1C(=O)CO[C@H]2CN(Cc3ccc(F)c(F)c3)C[C@H]21 | % | -2.83 |

====

compounds and their reported cytotoxicity at 10 µM
Experiment: Toxicity liver stage against HepG2, at 10uM
Type: cell-based
Set-up: test concentration 10 uM, cell line HepG2-A16-CD81EGFP
Assay context: human, HepG2-A16-CD81EGFP cells; read-out: INHIBITION
Test readout: cytotoxicity at 10 µM (%)

| Compound | Test readout | Unit tag | Observed value |
| --- | --- | --- | --- |
| CC(Cc1cccc(F)c1)C(=O)NS(=O)(=O)c1ccc(F)cc1 (stereo unspecified) | cytotoxicity at 10 µM | % | 5.58 |
| CC(C)CC(=O)NCc1cccc(OCCN(C)C2CCOCC2)c1 | cytotoxicity at 10 µM | % | 11.5 |
| c1cnnc(-c2noc(COCC3CCCO3)n2)c1 (stereo unspecified) | cytotoxicity at 10 µM | % | 2.66 |
| c1ccc(N2CCCC3(CCN(Cc4cccs4)C3)C2)nc1 (stereo unspecified) | cytotoxicity at 10 µM | % | 12.7 |
| COc1ccc(C(NCc2cccc(C#N)c2)C(C)C)cc1 (stereo unspecified) | cytotoxicity at 10 µM | % | 17 |
| Cc1nnc([C@@H]2CCO[C@@H]3CCN(C(=O)Cc4ccccn4)C[C@@H]32)o1 | cytotoxicity at 10 µM | % | 10.1 |
| CC(C)n1ccnc1CN1CCCN(C(=O)c2cccnc2O)CC1 | cytotoxicity at 10 µM | % | 1.74 |
| Cc1cccc(C2(NCCCS(C)(=O)=O)CCCC2)c1 | cytotoxicity at 10 µM | % | 1.3 |
| CNc1cc(CCNC(=O)CC(C)C)nc(-c2ccccn2)n1 | cytotoxicity at 10 µM | % | 1.26 |
| Cc1ccc(C)c2c(=O)cc(CN3CC[C@@H](N)[C@H](O)C3)[nH]c12 | cytotoxicity at 10 µM | % | 8.24 |
| Cc1cnn(CCNCC(O)COc2cccc(C(F)(F)F)c2)c1 (stereo unspecified) | cytotoxicity at 10 µM | % | -21.7 |

====

molecules and their reported cytotoxicity at 10 µM
Experiment: Toxicity liver stage against HepG2, at 10uM
Format: cell-based
Design: test concentration 10 uM, cell line HepG2-A16-CD81EGFP
Assay context: human, HepG2-A16-CD81EGFP cells; read-out: INHIBITION
Test readout: cytotoxicity at 10 µM (%)

| Molecule | Test readout | Observed value |
| --- | --- | --- |
| O=C1NCCO[C@H]2CN(C(=O)Cc3csc4ccccc34)CC[C@@H]12 | cytotoxicity at 10 µM | -101 |
| c1nc2c(c(NC3CCC3)n1)CCNCC2 | cytotoxicity at 10 µM | -1.28 |
| Fc1cccc(CN2C[C@@H]3CN(Cc4ccccn4)C[C@@H]3C2)c1 | cytotoxicity at 10 µM | -1.07 |
| CCNC(=O)[C@@H]1C[C@H](N)CN1C(=O)c1cccc(CCC(C)(C)O)c1 | cytotoxicity at 10 µM | 4.61 |
| CC(C)Oc1ccc(CN2CCC(Cc3nnc(CO)n3C)CC2)cc1 | cytotoxicity at 10 µM | 1.24 |
| CC(C)CN1CCCC(c2nc(O)c3cc(F)ccc3n2)C1 (configuration not stated) | cytotoxicity at 10 µM | 10.3 |
| CS(=O)(=O)c1ccc(OCCCN2CCc3cncnc3C2)cc1 | cytotoxicity at 10 µM | -15.3 |
| Cc1ccoc1C(=O)N1CCn2nnc(COc3cccnc3)c2C1 | cytotoxicity at 10 µM | -82.5 |
| Cc1cccc(CN2CC[C@@H]3[C@@H]2CCN3C(=O)c2ccno2)n1 | cytotoxicity at 10 µM | -18.2 |
| CCN(CC)C(=O)c1nc2c(s1)CCN(C(=O)Nc1ccccc1)CC2 | cytotoxicity at 10 µM | 12 |
| CCc1csc(CCNC(=O)CC2CCN(C(C)C)CC2)n1 | cytotoxicity at 10 µM | 6.62 |
| Cc1ccc(O)c(C(=O)N2CCCC(NC(=O)C(C)C)C2)c1 (configuration not stated) | cytotoxicity at 10 µM | -0.988 |
| NC(=O)C1Cn2ccnc2C2(CCN(C(=O)NC3CCCC3)CC2)O1 (configuration not stated) | cytotoxicity at 10 µM | -104 |
| Cc1nc2c(c(N3CCC(O)(CN4CCCC4)CC3)n1)CCNCC2 | cytotoxicity at 10 µM | -3.39 |
| Cc1ccccc1CNc1ccccc1OCC(=O)N1CCOCC1 | cytotoxicity at 10 µM | -2.38 |
| CCC1CN(C(=O)COc2ccc(C)nc2)CCO1 (configuration not stated) | cytotoxicity at 10 µM | -3.7 |
| CC(C)=CCN1CCN(C(=O)c2cc(C(C)C)no2)[C@H]2CS(=O)(=O)C[C@H]21 | cytotoxicity at 10 µM | -7.86 |
| O=C(NC[C@H]1OC[C@@H](NC2CCCCC2)[C@@H]1O)c1cccs1 | cytotoxicity at 10 µM | -2.36 |
| CC(=O)N1CCO[C@@H]2CN(C(=O)NCc3cccnc3)CC[C@@H]2C1 | cytotoxicity at 10 µM | 7.34 |
| COc1ccccc1C(=O)Nc1c(F)c(C(=O)NC2CCCC2)nn1C | cytotoxicity at 10 µM | -10.8 |
| Cn1cc(-c2noc(C3(C)CCOCC3)n2)cn1 | cytotoxicity at 10 µM | -5.65 |
| CC(NC(=O)N(C)C1CC1)c1ccc(Oc2cccnc2)c(F)c1 (configuration not stated) | cytotoxicity at 10 µM | -1.23 |
| Cc1cnc(C(=O)N2CCC3(CC2)CC(c2ccncc2)C(=O)N3)cn1 (configuration not stated) | cytotoxicity at 10 µM | 9.14 |
| O=C(NCc1nncn1-c1ccccc1)C1CCCC1 | cytotoxicity at 10 µM | -11.5 |
| Cc1ccsc1CNc1cc(N2CCCC2CO)ncn1 (configuration not stated) | cytotoxicity at 10 µM | -2.45 |
| CC(C)c1nc(CNc2ccc(N3CCC(CO)CC3)cn2)cs1 | cytotoxicity at 10 µM | -2.6 |
| O=C(NCCn1ccc(-c2ccccn2)n1)c1ccncc1 | cytotoxicity at 10 µM | -20.7 |
| CCOc1ncccc1-c1cc2c(cc1C(N)=O)OCO2 | cytotoxicity at 10 µM | -0.421 |
| CCC(CNS(=O)(=O)c1cccc(C(=O)OC)c1)N1CCCC1 (configuration not stated) | cytotoxicity at 10 µM | -8.93 |
| CN(C)[C@@H]1CN(C(=O)Cc2cccc(F)c2)[C@@H]2CCCO[C@H]12 | cytotoxicity at 10 µM | 1.37 |
| NCCn1cc(C(=O)NCc2ccccc2-n2cccn2)nn1 | cytotoxicity at 10 µM | -2.34 |
| CCOc1ccnc(NCCc2nc(C)cc(=O)[nH]2)n1 | cytotoxicity at 10 µM | -6.73 |
| CCC(=O)N1CCC2(COCc3c(C)nc(N(C)C)nc32)C1 (configuration not stated) | cytotoxicity at 10 µM | -31.5 |
| Cn1ccc(CN2CCC3(CC2)CC(Nc2cnccn2)CO3)n1 (configuration not stated) | cytotoxicity at 10 µM | -2.66 |
| CC(NC(=O)CCNC(=O)c1ccoc1)c1ccccc1 (configuration not stated) | cytotoxicity at 10 µM | 5.66 |
| N[C@@H]1CC[C@@H](NC(=O)c2ccccc2OC(F)(F)C(F)F)C1 | cytotoxicity at 10 µM | -4.85 |
| Cc1nonc1CN(C)Cc1c[nH]nc1-c1ccc(F)cc1F | cytotoxicity at 10 µM | 11.9 |
| Cc1cnn(CCNCCCOc2ccc(C#N)cc2)c1 | cytotoxicity at 10 µM | -0.222 |
| COc1cc(OC)c(-n2nnc(C(=O)O)c2C)cc1Cl | cytotoxicity at 10 µM | -16.8 |
| CS(=O)(=O)CCC(=O)Nc1nccn1Cc1ccccc1Cl | cytotoxicity at 10 µM | -5.98 |
| O=C(c1ccc(F)cc1F)N1C[C@@H](O)[C@H](N2CCOCC2)C1 | cytotoxicity at 10 µM | -1.37 |
| Cn1nnnc1SCCNC(=O)C1CCN(C(=O)C2CC2)CC1 | cytotoxicity at 10 µM | -5.95 |
| CCc1nccn1-c1cccc(C2CCCN2S(=O)(=O)N(C)C)n1 (configuration not stated) | cytotoxicity at 10 µM | -9.85 |
| CN(C)CCCNC(=O)c1cc(Br)c2c(c1)OCCO2 | cytotoxicity at 10 µM | 13.3 |
| CCNC(=O)N(C)C(c1cccnc1)C(C)C (configuration not stated) | cytotoxicity at 10 µM | -10.2 |
| CC(C)C(=O)N1CCc2nc(C(=O)Nc3cccnc3)sc2CC1 | cytotoxicity at 10 µM | 12.5 |
| O=C(NCCO)NCC(c1ccccc1)N1CCc2sccc2C1 (configuration not stated) | cytotoxicity at 10 µM | 1.96 |
